- assayed.system: GDP-bound KRAS wild-type protein (Homo sapiens)
- protocol.details: Binding to KRAS by surface plasmon resonance (SPR), dissociation constant KD
- assay.setup: Single Cycle Kinetics, 1:1 binding model
Where a SMILES comes first, the peptide text is derived from it. Bridges are numbered along the chain shown (N, C = ends). [ ]: non-standard residue; d: D form. The star is where a group is joined. hPhe(3-Cl-4-CF3) = N[C@@H](CCc1ccc(C(F)(F)F)c(Cl)c1)C(=O)O; NPrPhe(4-CF3) = CCCN[C@@H](Cc1ccc(C(F)(F)F)cc1)C(=O)O; NMeGly(cPent) = CN[C@H](C(=O)O)C1CCCC1; Pro(4S-Me) = C[C@@H]1CN[C@H](C(=O)O)C1; NMeD = CN[C@@H](CC(=O)O)C(=O)O; NMeL = CN[C@@H](CC(C)C)C(=O)O; Morpholide = C1CN(*)CCO1; Ac5c = NC1(C(=O)O)CCCC1; Aze = O=C(O)[C@@H]1CCN1; Sar = CNCC(=O)O
The entries below come with measured Kd values attached.

| compound | Kd / nM |
| --- | --- |
| CCO[C@@H]1C[C@H]2C(=O)NC3(CCCC3)C(=O)N(C)[C@@H](C3CCCC3)C(=O)N(C)[C@H](C(=O)N(C)C)CC(=O)N(C)[C@@H](CC3CC3)C(=O)N[C@@H]([C@@H](C)CC)C(=O)N(C)CC(=O)N(C)[C@H]3C[C@@H](C)[C@@H](C)CN(C3=O)[C@@H](Cc3ccc(C(F)(F)F)cc3)C(=O)N(C)CC(=O)N[C@@H](CCc3ccc(C(F)(F)F)c(Cl)c3)C(=O)N2C1 | 0.037 |
| CCCN1C(=O)CN(C)C(=O)[C@@H]2CCN2C(=O)[C@H]([C@@H](C)CC)NC(=O)[C@H](CC(C)C)N(C)C(=O)C[C@@H](C(=O)N2CCOCC2)N(C)C(=O)[C@H](C2CCCC2)N(C)C(=O)C2(CCCC2)NC(=O)[C@@H]2C[C@H](C)CN2C(=O)[C@H](CCc2ccc(C(F)(F)F)c(Cl)c2)NC(=O)CN(C)C(=O)[C@@H]1Cc1ccc(C(F)(F)F)cc1 [PP0453] ([NMeL]I[Aze][Sar][NPrPhe(4-CF3)][Sar][hPhe(3-Cl-4-CF3)][Pro(4S-Me)][Ac5c][NMeGly(cPent)][NMeD]-Morpholide; lactam N-11) | 1.2 |

====

- assayed.system: GDP-bound KRAS wild-type protein (Homo sapiens, UniProt P01116)
- Sequence (P01116 1-188 isoform P01116-2): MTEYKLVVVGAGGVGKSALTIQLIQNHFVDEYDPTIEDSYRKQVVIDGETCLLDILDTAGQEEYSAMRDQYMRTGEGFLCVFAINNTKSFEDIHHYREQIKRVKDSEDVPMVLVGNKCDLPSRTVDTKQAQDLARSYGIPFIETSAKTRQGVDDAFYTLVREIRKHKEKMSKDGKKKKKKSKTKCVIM
- protocol.details: Binding to KRAS by surface plasmon resonance (SPR), dissociation constant KD
- assay.setup: 1:1 binding model
Where a SMILES comes first, the peptide text is derived from it. Bridges are numbered along the chain shown (N, C = ends). [ ]: non-standard residue; d: D form. The star is where a group is joined. hPhe(3-Cl-4-CF3) = N[C@@H](CCc1ccc(C(F)(F)F)c(Cl)c1)C(=O)O; NPrPhe(4-CF3) = CCCN[C@@H](Cc1ccc(C(F)(F)F)cc1)C(=O)O; NMeGly(cPent) = CN[C@H](C(=O)O)C1CCCC1; NMeD = CN[C@@H](CC(=O)O)C(=O)O; NMeL = CN[C@@H](CC(C)C)C(=O)O; Morpholide = C1CN(*)CCO1; Ac5c = NC1(C(=O)O)CCCC1; Aze = O=C(O)[C@@H]1CCN1; Sar = CNCC(=O)O
Exam item: assign condition met to entries whose Kd is below 0.3 nM and condition not met to entries at or above 0.3 nM. Note that a value of exactly 0.3 nM receives condition not met.

| compound | qualitative.label |
| --- | --- |
| CCCOC[C@H]1C(=O)N[C@@H]([C@@H](C)CC)C(=O)N2CCC[C@H]2C(=O)N(C)[C@H]2C/C=C\CCN(C2=O)[C@@H](Cc2ccc(C)cc2)C(=O)N(C)CC(=O)N[C@@H](CCc2cc(F)c(C(F)(F)F)c(F)c2)C(=O)N2C[C@H](C)C[C@H]2C(=O)NC2(CC(C)(C)C2)C(=O)N(C)[C@@H](C2CCCC2)C(=O)N(C)[C@H](C(=O)N(C)CC)CC(=O)N1C | condition not met |
| CCO[C@H](C)[C@@H]1NC(=O)[C@H](CC(C)C)N(C)C(=O)C[C@@H](C(=O)N(C)C)N(C)C(=O)[C@H](C2CCCC2)N(C)C(=O)C2(CC(C)(C)C2)NC(=O)[C@@H]2C[C@H](C)CN2C(=O)[C@H](CCc2ccc(C(F)(F)F)c(OC)c2)NC(=O)CN(C)C(=O)[C@H](Cc2ccc(C)cc2)N2CC/C=C\C[C@@H](C2=O)N(C)C(=O)CN(C)C1=O | condition met |
| CCCN1C(=O)CN(C)C(=O)[C@@H]2CCN2C(=O)[C@H]([C@@H](C)CC)NC(=O)[C@H](CC(C)C)N(C)C(=O)C[C@@H](C(=O)N2CCOCC2)N(C)C(=O)[C@H](C2CCCC2)N(C)C(=O)C2(CCCC2)NC(=O)[C@@H]2CCN2C(=O)[C@H](CCc2ccc(C(F)(F)F)c(Cl)c2)NC(=O)CN(C)C(=O)[C@@H]1Cc1ccc(C(F)(F)F)cc1 [PP0307] ([NMeL]I[Aze][Sar][NPrPhe(4-CF3)][Sar][hPhe(3-Cl-4-CF3)][Aze][Ac5c][NMeGly(cPent)][NMeD]-Morpholide; lactam N-11) | condition not met |
| CCO[C@@H]1C[C@H]2C(=O)NC3(CC(C)(C)C3)C(=O)N(C)[C@@H](C(CC)CC)C(=O)N(C)[C@H](C(=O)N(C)C)CC(=O)N(C)[C@@H](COC)C(=O)N[C@@H]([C@@H](C)CC)C(=O)N(C)CC(=O)N(C)[C@H]3C/C=C\CCN(C3=O)[C@@H](CC3CCC(F)(F)CC3)C(=O)N(C)CC(=O)N[C@@H](CCc3cc(F)c(C(F)(F)F)c(F)c3)C(=O)N2C1 | condition not met |
| CCC[C@H]1C(=O)N[C@@H]([C@@H](C)CC)C(=O)N(C2CC2)CC(=O)N(C)[C@H]2C/C=C\CCN(C2=O)[C@@H](CC2CCC(F)(F)CC2)C(=O)N(C)CC(=O)N[C@@H](CCc2ccc(Cl)c(Cl)c2)C(=O)N2C[C@H](OC(C)C)C[C@H]2C(=O)NC2(CC(C)(C)C2)C(=O)N(C)[C@@H](C2CCCC2)C(=O)N(C)[C@H](C(=O)N(C)C)CC(=O)N1C | condition not met |
| CCC[C@H]1C(=O)N[C@@H](CC(C)C)C(=O)N2C[C@@H](OC)C[C@H]2C(=O)N(C)[C@H]2C/C=C\CCN(C2=O)[C@@H](Cc2ccc(C)cc2)C(=O)N(C)CC(=O)N[C@@H](CCc2cc(F)c(C(F)(F)F)c(F)c2)C(=O)N2C[C@H](OCC)C[C@H]2C(=O)NC2(CC(C)(C)C2)C(=O)N(C)[C@@H](C2CCCC2)C(=O)N(C)[C@H](C(=O)N(C)C)CC(=O)N1C | condition not met |
| CCC(CC)[C@H]1C(=O)N(C)[C@H](C(=O)N(C)C)CC(=O)N(C)[C@@H](COC)C(=O)N[C@@H]([C@@H](C)CC)C(=O)N(C)CC(=O)N(C)[C@H]2C/C=C\CCN(C2=O)[C@@H](Cc2ccc(C)cc2)C(=O)N(C)CC(=O)N[C@@H](CCc2ccc(Cl)c(Cl)c2)C(=O)N2CCCCC[C@H]2C(=O)NC2(CC(C)(C)C2)C(=O)N1C | condition not met |
| CCC[C@H]1C(=O)N[C@@H]([C@@H](C)CC)C(=O)N(C)CC(=O)N(C)[C@H]2C/C=C\CCN(C2=O)[C@@H](Cc2ccc(C(F)(F)F)cc2)C(=O)N(C)CC(=O)N[C@@H](CCc2ccc(C(F)(F)F)c(OC)c2)C(=O)N2C[C@H](OCC)C[C@H]2C(=O)NC2(CC(C)(C)C2)C(=O)N(C)[C@@H](CC2CCC2)C(=O)N(C)[C@H](C(=O)N(C)C)CC(=O)N1C | condition not met |
| CCC[C@H]1C(=O)N[C@@H]([C@@H](C)CC)C(=O)N(C)CC(=O)N(C)[C@H]2C/C=C\CCN(C2=O)[C@@H](Cc2ccc(C)cc2)C(=O)N(C)CC(=O)N[C@@H](CCc2ccc3sc(C)c(C)c3c2)C(=O)N2C[C@H](OCC)C[C@H]2C(=O)NC2(CC(C)(C)C2)C(=O)N(C)[C@@H](C2CCCC2)C(=O)N(C)[C@H](C(=O)N(C)C)CC(=O)N1C | condition not met |
| CCC[C@H]1C(=O)N[C@@H]([C@@H](C)CC)C(=O)N(C)CC(=O)N(C)[C@H]2C/C=C\CCN(C2=O)[C@@H](Cc2ccc(C)cc2)C(=O)N(C)CC(=O)N[C@@H](CCc2cc(F)c(C(F)(F)F)c(F)c2)C(=O)N2C[C@H](OCC)C[C@H]2C(=O)NC2(CC(C)(C)C2)C(=O)N(C)[C@@H](CC(C)(C)C)C(=O)N(C)[C@H](C(=O)N(C)C)CC(=O)N1C | condition met |
